B1: library; numbered along this chain (parent)
chain: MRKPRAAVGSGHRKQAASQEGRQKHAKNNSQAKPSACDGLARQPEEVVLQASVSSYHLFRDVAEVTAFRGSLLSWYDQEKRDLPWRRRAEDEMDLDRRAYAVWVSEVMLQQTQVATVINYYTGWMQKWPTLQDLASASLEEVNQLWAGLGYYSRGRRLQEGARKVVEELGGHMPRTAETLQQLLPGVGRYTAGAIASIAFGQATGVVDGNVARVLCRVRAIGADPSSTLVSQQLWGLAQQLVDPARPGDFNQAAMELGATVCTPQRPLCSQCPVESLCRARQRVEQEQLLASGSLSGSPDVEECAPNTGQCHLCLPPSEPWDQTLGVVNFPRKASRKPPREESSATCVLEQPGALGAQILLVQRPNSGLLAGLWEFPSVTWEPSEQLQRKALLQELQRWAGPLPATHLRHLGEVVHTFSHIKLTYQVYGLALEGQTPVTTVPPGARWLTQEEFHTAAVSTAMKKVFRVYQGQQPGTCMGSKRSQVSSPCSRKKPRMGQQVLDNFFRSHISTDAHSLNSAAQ

# Variants of: B1
# testMethodNotes: 8OG:A repair function score (normalized; synonymous = 0, nonsense = -1) (normalized log-likelihood score); higher = more repair activity (WT-like);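 note: cells sorted at 72 h after reporter transfection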
# appliedConditions: with 8OG:A DNA repair reporter (GFP) in HEK-293 MUTYH KO cells
Rule: satisfied for 8OG:A repair function score not less than -0.01, not satisfied for anything less.

variantSpec | group
H416E | not satisfied
L229F | not satisfied
I198P | not satisfied
E106Q | not satisfied
Q239V | not satisfied
E178S | not satisfied
A63L | satisfied
E79M | satisfied
L58R | satisfied
E141W | not satisfied
A199F | not satisfied
L448F | not satisfied
R42F | satisfied
Q450R | satisfied
S74T | satisfied
F68N | not satisfied
G161K | not satisfied
T122I | satisfied
C477P | satisfied
Q286H | not satisfied
L373K | not satisfied
A357H | not satisfied

These data points were gathered from the supplement of paper PMC11908140.
